# System: S. pneumoniae Stpn_Erm 6849
# method-notes: MIC, broth microdilution (NCCLS)
# Type: cell-based, Streptococcus pneumoniae
# details: Table 7, Strain ID I (Table 6): S. pneumoniae Stpn_Erm 6849
measurement-type: MIC

For orientation, consider the following solved cases.
| compound | MIC |
| --- | --- |
| CC[C@H]1OC(=O)[C@H](C)C(=O)[C@H](C)[C@@H](OC2O[C@H](C)C[C@H](N(C)C)[C@H]2O)[C@@](C)(OC)C[C@@H](C)C(=O)[C@H](C)[C@H]2N(CCCCn3cnc(-c4ccc(F)nc4)c3)C(=O)O[C@]12CC (some centres unmarked) [Example 33] | =0.05 |
| CC[C@H]1OC(=O)[C@H](C)C(=O)[C@H](C)[C@@H](OC2O[C@H](C)C[C@H](N(C)C)[C@H]2O)[C@@](C)(OC)C[C@@H](C)C(=O)[C@H](C)[C@H]2N(CCCOc3cccc(-c4cccnc4)c3)C(=O)O[C@]12CC (some centres unmarked) [Example 35] | =0.05 |
| CC[C@H]1OC(=O)[C@H](C)C(=O)[C@H](C)[C@@H](OC2O[C@H](C)C[C@H](N(C)C)[C@H]2O)[C@@](C)(OC)C[C@@H](C)C(=O)[C@H](C)[C@H]2N(CCCCn3cc(-c4cccnc4)nc3C)C(=O)O[C@]12CC (some centres unmarked) [Example 20] | =0.5 |
| CC[C@H]1OC(=O)[C@@](C)(F)C(=O)[C@H](C)[C@@H](OC2O[C@H](C)C[C@H](N(C)C)[C@H]2O)[C@@](C)(OC)C[C@@H](C)C(=O)[C@H](C)[C@H]2N(CCCCc3ccc4ccccc4n3)C(=O)O[C@]12CC (some centres unmarked) [65 (1)] | =0.05 |

Then this compound:
## Input Fill in: MIC of CC[C@H]1OC(=O)[C@H](C)C(=O)[C@H](C)[C@@H](OC2O[C@H](C)C[C@H](N(C)C)[C@H]2O)[C@@](C)(OC)C[C@@H](C)C(=O)[C@H](C)[C@H]2N(CCCCc3ncc(-c4cccc(N)c4)s3)C(=O)O[C@]12CC (some centres unmarked) [Example 34] is ___
## Output =0.05

The reported measurements were obtained from patent US7332476B2.
